assay_readout: logD

logD reported for this compound Cc1cc(-c2ccc(NC(=O)[C@H](CCCCNC(=O)CCN3C(=O)CC(SCCC(=O)N[C@H](Cc4ccccc4)C(=O)N[C@H]4CSSC[C@@H](C(=O)N[C@H](C(=O)O)[C@@H](C)O)NC(=O)[C@H]([C@@H](C)O)NC(=O)[C@H](CCCCN)NC(=O)[C@@H](Cc5c[nH]c6ccccc56)NC(=O)[C@H](Cc5ccc(O)cc5)NC4=O)C3=O)NC(=O)CN3CCN(CC(=O)O)CCN(CC(=O)O)CCN(CC(=O)O)CC3)c(C)c2)ccc1/N=N/c1ccc2c(S(=O)(=O)O)cc(S(=O)(=O)O)c(N)c2c1O (stereo partly shown) [[64Cu]Cu-DOTA-EB-TATE, metal not drawn] : -2.26
